# tissue uptake at 4 h per entry
# Measurement Notes: Biodistribution of 177Lu-labeled αMSH analogues in mice bearing B16F10 mouse melanoma
# Type: in vivo, C57BL/6J mice
# Test Context: mouse, muscle, iv, total radioactivity; 4 h p.i., C57BL/6J mice, B16F10 melanoma; read-out: Biodistribution, Muscle
Expressed in %ID/g, but write only the number.

Below are worked cases with known answers.
CCCC[C@H](NC(=O)CN1CCC(NC(=O)[C@H](CCCCNC(=O)CN2CCN(CC(=O)O)CCN(CC(=O)O)CCN(CC(=O)O)CC2)NC(=O)[C@H](CCC(=O)O)NC(=O)CCCc2ccc(I)cc2)CC1)C(=O)N[C@H]1CC(=O)NCCCC[C@@H](C(N)=O)NC(=O)[C@H](Cc2c[nH]c3ccccc23)NC(=O)[C@H](CCCNC(=N)N)NC(=O)[C@@H](Cc2ccccc2)NC(=O)[C@H](Cc2c[nH]cn2)NC1=O [^177Lu-labeled CCZ01082, metal not drawn] : 0.39
CCCC[C@H](NC(=O)CN1CCC(NC(=O)[C@H](CCCCNC(=O)CN2CCN(CC(=O)O)CCN(CC(=O)O)CCN(CC(=O)O)CC2)NC(=O)[C@H](CCC(=O)O)NC(=O)CCCc2ccc(I)cc2)CC1)C(=O)N[C@H]1CC(=O)NCCCC[C@@H](C(N)=O)N(C)C(=O)[C@H](Cc2c[nH]c3ccccc23)NC(=O)[C@H](CCCNC(=N)N)N(C)C(=O)[C@@H](Cc2ccccc2)NC(=O)[C@H](Cc2c[nH]cn2)NC1=O [^177Lu-labeled CCZ01118, metal not drawn] : 0.18
CCCC[C@H](NC(=O)CN1CCC(NC(=O)CN2CCN(CC(=O)O)CCN(CC(=O)O)CCN(CC(=O)O)CC2)CC1)C(=O)N[C@H]1CC(=O)NCCCC[C@@H](C(N)=O)N(C)C(=O)[C@H](Cc2c[nH]c3ccccc23)NC(=O)[C@H](CCCNC(=N)N)N(C)C(=O)[C@@H](Cc2ccccc2)NC(=O)[C@H](Cc2c[nH]cn2)NC1=O [^177Lu-labeled CCZ01106, metal not drawn] : 0.02
CCCC[C@H](NC(=O)CN1CCC(NC(=O)CN2CCN(CC(=O)O)CCN(CC(=O)O)CCN(CC(=O)O)CC2)CC1)C(=O)N[C@H]1CC(=O)NCCCC[C@@H](C(N)=O)N(C)C(=O)[C@H](Cc2c[nH]c3ccccc23)N(C)C(=O)[C@H](CCCNC(=N)N)N(C)C(=O)[C@@H](Cc2ccccc2)NC(=O)[C@H](Cc2c[nH]cn2)N(C)C1=O [^177Lu-labeled CCZ01099, metal not drawn] : 0.02

Query compound follows.
Ask | Return tissue uptake at 4 h for the following compound: CCCC[C@H](NC(=O)CN1CCC(NC(=O)[C@H](CCCCNC(=O)CN2CCN(CC(=O)O)CCN(CC(=O)O)CCN(CC(=O)O)CC2)NC(=O)[C@H](CCC(=O)O)NC(=O)CCCc2ccc(I)cc2)CC1)C(=O)N[C@H]1CC(=O)NCCCC[C@@H](C(N)=O)N(C)C(=O)[C@H](Cc2c[nH]c3ccccc23)N(C)C(=O)[C@H](CCCNC(=N)N)N(C)C(=O)[C@@H](Cc2ccccc2)NC(=O)[C@H](Cc2c[nH]cn2)N(C)C1=O [^177Lu-labeled CCZ01088, metal not drawn]
Reply | 0.17
